# Test system: MES-SA
# Method Description: relative viability vs DMSO control (72 h) (fraction); higher = more viable cells
# Assay Conditions: 0.00152 µM
Quick list: relative viability per entry.
Property Label: relative viability

• O=C(c1ccc(F)c(F)c1Nc1ccc(I)cc1F)N1CC(O)([C@@H]2CCCCN2)C1 = 0.925
• Cc1c2oc3c(C)ccc(C(=O)N[C@@H]4C(=O)N[C@H](C(C)C)C(=O)N5CCC[C@H]5C(=O)N(C)CC(=O)N(C)[C@@H](C(C)C)C(=O)O[C@@H]4C)c3nc-2c(C(=O)N[C@@H]2C(=O)N[C@H](C(C)C)C(=O)N3CCC[C@H]3C(=O)N(C)CC(=O)N(C)[C@@H](C(C)C)C(=O)O[C@@H]2C)c(N)c1=O = 0.354
• CS(=O)(=O)CCNCc1ccc(-c2ccc3ncnc(Nc4ccc(OCc5cccc(F)c5)c(Cl)c4)c3c2)o1 = 0.904
• Cc1cc(F)c(C(=O)Nc2cccc(-c3nncn3C(C)C)n2)cc1-n1cnc(C2CC2)c1 = 0.907
• CC(=O)c1c(C)c2cnc(Nc3ccc(N4CCNCC4)cn3)nc2n(C2CCCC2)c1=O = 0.975
• O=S(=O)(c1cccc2c(O)nccc12)N1CCCNCC1 [Hydroxyfasudil] = 0.93
• Cc1[nH]c(/C=C2\C(=O)Nc3ccccc32)c(C)c1CCC(=O)O [Orantinib] = 0.975
• CN(C)CCCOc1ccc(-c2ccc3ncc4c(c3c2)n(C2CCOCC2)c(=O)n4C)cn1 = 0.955
• CNC(=O)c1cccc2cc(Oc3ccnc4cc(OCC5(N)CC5)c(OC)cc34)ccc12 = 0.965
• Cc1cc2c(F)c(Oc3ncnn4cc(OC[C@@H](C)OC(=O)[C@H](C)N)c(C)c34)ccc2[nH]1 [Brivanib_alaninate] = 0.939

====

# System: SW1353
# Method Description: relative viability vs DMSO control (72 h) (fraction); higher = more viable cells
# Assay Conditions: 0.00152 µM
Quick list: relative viability per entry.
Property Label: relative viability

* CN(C)CCCOc1ccc(-c2ccc3ncc4c(c3c2)n(C2CCOCC2)c(=O)n4C)cn1 | 1.05
* CC(=O)c1c(C)c2cnc(Nc3ccc(N4CCNCC4)cn3)nc2n(C2CCCC2)c1=O | 1.05
* C=CC(=O)N1CCC(CNc2ncnc(N)c2-c2ccc(Oc3ccccc3)cc2)CC1 | 1.09
* O=S(=O)(c1cccc2c(O)nccc12)N1CCCNCC1 [Hydroxyfasudil] | 1.05
* COC(=O)c1ccc2c(c1)NC(=O)/C2=C(\Nc1ccc(N(C)C(=O)CN2CCN(C)CC2)cc1)c1ccccc1 | 1.02
* Cc1[nH]c(/C=C2\C(=O)Nc3ccccc32)c(C)c1CCC(=O)O [Orantinib] | 1.09

====

# System: RD
# Method Description: relative viability vs DMSO control (72 h) (fraction); higher = more viable cells
# Assay Conditions: 0.01372 µM
Please respond with criterion met when measured relative viability is strictly beneath 1, and with criterion not met in all other cases.

* Cn1cnc2c(F)c(Nc3ccc(Br)cc3Cl)c(C(=O)NOCCO)cc21 [Selumetinib] | criterion met
* CS(=O)(=O)CCNCc1ccc(-c2ccc3ncnc(Nc4ccc(OCc5cccc(F)c5)c(Cl)c4)c3c2)o1 [Lapatinib] | criterion not met
* CN(C)CCCOc1ccc(-c2ccc3ncc4c(c3c2)n(C2CCOCC2)c(=O)n4C)cn1 [AZD-0156] | criterion not met
* O=S(=O)(c1cccc2c(O)nccc12)N1CCCNCC1 [Hydroxyfasudil] | criterion not met
* Cc1cc(F)c(C(=O)Nc2cccc(-c3nncn3C(C)C)n2)cc1-n1cnc(C2CC2)c1 [Selonsertib] | criterion not met
* CN(C)C/C=C/C(=O)Nc1cc2c(Nc3ccc(F)c(Cl)c3)ncnc2cc1O[C@H]1CCOC1 [Afatinib] | criterion not met

====

# Test system: G401
# Method Description: relative viability vs DMSO control (72 h) (fraction); higher = more viable cells
# Assay Conditions: 0.3704 µM
Quick list: relative viability per entry.
Property Label: relative viability

- CNC(=O)c1cccc2cc(Oc3ccnc4cc(OCC5(N)CC5)c(OC)cc34)ccc12 [Lucitanib]: 0.888
- CO[C@H]1C[C@@H]2CC[C@@H](C)[C@@](O)(O2)C(=O)C(=O)N2CCCC[C@H]2C(=O)O[C@H]([C@H](C)C[C@@H]2CC[C@@H](OC(=O)C(C)(CO)CO)[C@H](OC)C2)CC(=O)[C@H](C)/C=C(\C)[C@@H](O)[C@@H](OC)C(=O)[C@H](C)C[C@H](C)/C=C/C=C/C=C/1C [Temsirolimus]: 0.637
- O=C(c1ccc(F)c(F)c1Nc1ccc(I)cc1F)N1CC(O)([C@@H]2CCCCN2)C1 [Cobimetinib]: 0.643
- COc1cc2ncnc(Nc3ccc(F)c(Cl)c3)c2cc1OCCCN1CCOCC1 [Gefitinib]: 0.993
- CNC(=O)c1c(C)oc2cc(Oc3ncnc4cc(OC)c(OC)cc34)ccc12 [Fruquintinib]: 0.953

====

# Tested on: SW684
# Method Description: relative viability vs DMSO control (72 h) (fraction); higher = more viable cells
# Assay Conditions: 0.00152 µM
Property Label: relative viability

* C#Cc1cccc(Nc2ncnc3cc4c(cc23)OCCOCCOCCO4)c1 [Icotinib] | 1.2

====

# Tested on: SK-ES-1
# Method Description: relative viability vs DMSO control (72 h) (fraction); higher = more viable cells
# Assay Conditions: 0.00457 µM
Quick list: relative viability per entry.
Property Label: relative viability

* COc1cc(Nc2ncc3c(n2)-c2ccc(Cl)cc2C(c2c(F)cccc2OC)=NC3)ccc1C(=O)O | 1.01
* Cc1cc2c(F)c(Oc3ncnn4cc(OC[C@@H](C)OC(=O)[C@H](C)N)c(C)c34)ccc2[nH]1 [Brivanib_alaninate] | 1.05
* Cc1cc(F)c(C(=O)Nc2cccc(-c3nncn3C(C)C)n2)cc1-n1cnc(C2CC2)c1 | 1.09
* C=CC(=O)N1CCC(CNc2ncnc(N)c2-c2ccc(Oc3ccccc3)cc2)CC1 | 1.04
* CO[C@H]1C[C@@H]2CC[C@@H](C)[C@@](O)(O2)C(=O)C(=O)N2CCCC[C@H]2C(=O)O[C@H]([C@H](C)C[C@@H]2CC[C@@H](OC(=O)C(C)(CO)CO)[C@H](OC)C2)CC(=O)[C@H](C)/C=C(\C)[C@@H](O)[C@@H](OC)C(=O)[C@H](C)C[C@H](C)/C=C/C=C/C=C/1C | 0.707
* C[C@@H]1CN(C(=O)c2ccc(NC(=O)c3cc(O[C@H](C)c4c(Cl)ccc(F)c4Cl)c(N)nn3)cc2)C[C@H](C)N1 | 1
* CC(=O)c1c(C)c2cnc(Nc3ccc(N4CCNCC4)cn3)nc2n(C2CCCC2)c1=O | 1.02

====

Quick list: relative viability per entry.
# Tested on: RD
# Method Description: relative viability vs DMSO control (72 h) (fraction); higher = more viable cells
# Assay Conditions: 0.1235 µM
Property Label: relative viability

• O=S(=O)(c1cccc2c(O)nccc12)N1CCCNCC1 [Hydroxyfasudil] = 1.15
• O=C(/C=C\n1cnc(-c2cc(C(F)(F)F)cc(C(F)(F)F)c2)n1)NNc1cnccn1 [Selinexor] = 0.754
• O=C(c1ccc(F)c(F)c1Nc1ccc(I)cc1F)N1CC(O)([C@@H]2CCCCN2)C1 = 0.636
• COC(=O)c1ccc2c(c1)NC(=O)/C2=C(\Nc1ccc(N(C)C(=O)CN2CCN(C)CC2)cc1)c1ccccc1 = 0.96
• CN(C)C/C=C/C(=O)Nc1cc2c(Nc3ccc(F)c(Cl)c3)ncnc2cc1O[C@H]1CCOC1 = 1.09
• COc1cc(Nc2ncc3c(n2)-c2ccc(Cl)cc2C(c2c(F)cccc2OC)=NC3)ccc1C(=O)O = 0.863
• CS(=O)(=O)CCNCc1ccc(-c2ccc3ncnc(Nc4ccc(OCc5cccc(F)c5)c(Cl)c4)c3c2)o1 = 1.09
• C=CC(=O)N1CCC(CNc2ncnc(N)c2-c2ccc(Oc3ccccc3)cc2)CC1 = 1.12
• Cc1c2oc3c(C)ccc(C(=O)N[C@@H]4C(=O)N[C@H](C(C)C)C(=O)N5CCC[C@H]5C(=O)N(C)CC(=O)N(C)[C@@H](C(C)C)C(=O)O[C@@H]4C)c3nc-2c(C(=O)N[C@@H]2C(=O)N[C@H](C(C)C)C(=O)N3CCC[C@H]3C(=O)N(C)CC(=O)N(C)[C@@H](C(C)C)C(=O)O[C@@H]2C)c(N)c1=O = 0.0929
• CO[C@H]1C[C@@H]2CC[C@@H](C)[C@@](O)(O2)C(=O)C(=O)N2CCCC[C@H]2C(=O)O[C@H]([C@H](C)C[C@@H]2CC[C@@H](OC(=O)C(C)(CO)CO)[C@H](OC)C2)CC(=O)[C@H](C)/C=C(\C)[C@@H](O)[C@@H](OC)C(=O)[C@H](C)C[C@H](C)/C=C/C=C/C=C/1C = 0.735
• O=C1CCc2c(Oc3ccc4c(c3)[C@@H]3[C@H](O4)[C@H]3c3nc4cc(C(F)(F)F)ccc4[nH]3)ccnc2N1 = 1.11
